- System: RARa homodimer (NR concentration 270 nM)
- methodSummary: PBM binding z-score (relative to random genomic background probes); higher = stronger binding; sequences stand for … in GC…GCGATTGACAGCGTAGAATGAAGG
measuredParameter: PBM binding z-score
The answer should be a number; do not append a unit.

// solved cases for PBM binding z-score follow
residues: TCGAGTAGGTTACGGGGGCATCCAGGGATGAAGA
PBM binding z-score: 0.18
--
residues: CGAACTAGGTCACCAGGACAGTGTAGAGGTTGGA
PBM binding z-score: 0.514
--
residues: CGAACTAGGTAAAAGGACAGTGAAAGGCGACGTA
PBM binding z-score: -0.518

Report PBM binding z-score, nothing else, for this sequence: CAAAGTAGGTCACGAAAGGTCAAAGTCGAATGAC 4.05

Answer with reported PBM binding z-score of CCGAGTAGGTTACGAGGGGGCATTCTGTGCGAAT 0.262

Identify measured PBM binding z-score corresponding to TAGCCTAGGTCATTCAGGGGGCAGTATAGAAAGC 0.982

Give the measured PBM binding z-score for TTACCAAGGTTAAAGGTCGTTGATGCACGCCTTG 0.588

Please look at this sequence and report its PBM binding z-score: CAAACTAGGTCACAGAGGTCGAAGTCCGTGCGTA 0.511

Give reported PBM binding z-score value for CAAACTAGGTCACCGGAAGGTCAAAGTTCGCATG 3.06
